- Test system: BALB/c mice, Madison 109 lung carcinoma i.m., survival
- test: NCI In Vivo Anticancer Drug Screen. Data for tumor model Madison 109 Lung Carcinoma (intramuscular) in BALB/CM mice
- recorded_conditions: endpoint: median survival time; dose: 8.0 mg/kg/injection; schedule: Q01DX009 (ip); vehicle: saline with Tween-80; higher = longer survival
Inconclusive results and toxic doses are left out.
Listed next: entries and their corresponding T/C.

| compound | T/C |
| --- | --- |
| N=C(N)c1ccc(/C=C/c2ccc(C(=N)N)cc2)cc1 | 109 % of control |
| COc1ccc(C[C@H](N)C(=O)NC2C(CO)OC(n3cnc4c(N(C)C)ncnc43)C2O)cc1 (some centres undefined) | 101 % of control |
| CCN(CC)CCCC(C)Nc1c2ccc(Cl)cc2nc2ccc(OC)cc12 (centres undefined) | 106 % of control |

Note: attention shifts to another entry.
[in] Could you tell me which T/C is on file for O=S(=O)(O)O ?
[out] 109 % of control
